assay: AP1 Signaling Pathway (AID 357); settings: ME-180 AP-1-bla reporter, EGF-induced, beta-lactamase ratio, 5 h; at 7.69 µM (top of the series) unless noted;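 further: ME-180 reporter cells stimulated with EGF at its EC50 level; on the % scale 0 is the no-effect control and ±100 the full control effect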
Inconclusive results are not listed. Calls of active or inactive are those of the source. The call rests on the fitted dose curve; in most records, active means well fitted curve in either direction with a large enough effect (not every such curve was filed as active); inconclusive means small, poorly fitted or top-dose-only effect, or another doubt; inactive means flat fitted curve, though single readings scatter.
activity change, negative = inhibition overview

{"structureSmiles": "C#C[C@@]1(O)CC[C@H]2[C@H]3CCC4=Cc5oncc5C[C@]4(C)[C@@H]3CC[C@@]21C", "activity change, negative = inhibition": "-22.8% [at 38 µM] (inactive)"}
{"structureSmiles": "CN(C)C[C@H]1CCC[C@@H](CN(C)C)C1=O", "activity change, negative = inhibition": "5.24% (inactive)"}

Prompt: Provide measured activity change, negative = inhibition value, entry: C#CCSc1n[nH]c(-c2ccco2)n1
Completion: -2.21% (inactive)

Prompt: Report activity change, negative = inhibition, nothing else, for this compound: COc1ccc([C@@H](C)c2cc3c(cc2O)OCO3)cc1
Completion: -11.5% (inactive)

---

experiment: NFAT Signaling Pathway (AID 444); conditions: Jurkat NFAT-bla M1, carbachol, beta-lactamase ratio, 5 h; at 7.69 µM (top of the series) unless noted;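 further: carbachol stimulus at about its EC50 of 1 µM final; on the % scale 0 is the no-effect control and ±100 the full control effect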
Inconclusive results are not listed. The source made the active and inactive calls. Calls follow the shape of the dose curve; as a rule, active = well fitted curve in either direction with a large enough effect (not every such curve was filed as active); inconclusive = small, poorly fitted or top-dose-only effect, or another doubt; inactive = flat fitted curve, though single readings scatter.
Listed next: entries and their corresponding activity change, negative = inhibition.

Examples with their reported activity change, negative = inhibition follow.
{"structureSmiles": "C[C@@H]1C[C@H]2[C@H]3C[C@@H](F)C4=CC(=O)C=C[C@]4(C)[C@@]3(Cl)[C@@H](O)C[C@@]2(C)[C@@H]1C(=O)COC(=O)C(C)(C)C", "activity change, negative = inhibition": "-26.1% [at 17.2 µM] (inactive)"}
{"structureSmiles": "Cc1ccc(N=Nc2c(O)ccc3cc(S(=O)(=O)O)ccc23)cc1", "activity change, negative = inhibition": "-0.401% (inactive)"}

// next item, activity change, negative = inhibition requested
Prompt: Give the reported value of activity change, negative = inhibition for this record: Nc1nc(SCc2ccccc2Cl)cc(C(=O)O)n1
Completion: 1.52% (inactive)

---

molecular target: Cytochrome P450 1A2 (Homo sapiens) (UniProt P05177); assay: p450-cyp1a2 (AID 410); conditions: recombinant CYP1A2, luciferin-ME demethylation, luminescence; series mostly up to 11.4 µM; further: potency means the concentration at half of the fitted maximal effect
Sequence (P05177 whole entry, looked up): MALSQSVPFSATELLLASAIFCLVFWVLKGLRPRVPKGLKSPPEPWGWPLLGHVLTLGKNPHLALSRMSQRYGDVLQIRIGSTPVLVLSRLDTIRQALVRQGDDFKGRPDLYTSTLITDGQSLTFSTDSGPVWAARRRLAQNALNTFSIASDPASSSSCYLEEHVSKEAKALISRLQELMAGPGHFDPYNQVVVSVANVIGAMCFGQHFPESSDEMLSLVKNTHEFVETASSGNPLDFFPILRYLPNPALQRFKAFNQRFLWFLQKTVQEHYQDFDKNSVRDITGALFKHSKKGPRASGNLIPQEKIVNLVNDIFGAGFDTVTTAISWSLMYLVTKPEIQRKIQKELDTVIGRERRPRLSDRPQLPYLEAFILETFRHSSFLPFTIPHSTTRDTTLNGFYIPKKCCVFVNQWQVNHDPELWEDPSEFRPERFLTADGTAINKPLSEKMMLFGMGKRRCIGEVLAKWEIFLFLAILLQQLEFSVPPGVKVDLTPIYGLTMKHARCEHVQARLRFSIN
Results filed as inconclusive are left out. Active and inactive are the calls of the source. Calls follow the shape of the full dose curve.
resultType: Potency

Answered examples (4):
{"molecule": "O=C(NCCO)c1ccc(Cl)cc1", "Potency": "3.98 µM (active)"}
{"molecule": "CC(=NC1CCCCC1)c1ccccc1O", "Potency": "inactive"}
{"molecule": "Nc1ncnc2nn([C@H]3O[C@@H](CO)[C@@H](O)[C@H]3O)nc12", "Potency": "inactive"}
{"molecule": "Cc1c2cnccc2c(C)c2c1c1ccccc1n2CCOC(=O)c1ccccc1", "Potency": "0.0794 µM (active)"}

Prompt: Please give the documented Potency of O=c1c(-c2ccccc2)nc2cnc(N3CCOCC3)nc2n1-c1ccccc1
Completion: 12.6 µM (active)

Prompt: Read off the recorded Potency for NC(N)=NC(N)=Nc1ccccc1 (tested in a mixture with another compound)
Completion: 3.16 µM (active)

Prompt: Consider the molecule COc1ccc(-n2c(=O)c(C)nc3cnc(Nc4cccc(OC)c4)nc32)cc1 and give its recorded Potency.
Completion: 15.8 µM (active)

---

experiment: NFAT Signaling Pathway (AID 444); conditions: Jurkat NFAT-bla M1, carbachol, beta-lactamase ratio, 5 h; at 7.69 µM (top of the series) unless noted
Results filed as inconclusive are left out. The source made the active and inactive calls. Calls come from the whole dose curve; as a rule, active = well fitted curve in either direction with a large enough effect (not every such curve was filed as active); inconclusive = small, poorly fitted or top-dose-only effect, or another doubt; inactive = flat fitted curve, though single readings scatter.
resultType: activity change, negative = inhibition

{"compound": "CSCC[C@@H](C(=O)O)N(C)C", "result": "7.85% (inactive)"}
{"compound": "S=C1N[C@H](c2ccccc2)N[C@H](c2ccccc2)S1", "result": "-21.2% (inactive)"}
{"compound": "C[C@H](NCCN(C)C)[C@@H]1CCC2C3CCc4cc(O)ccc4[C@H]3CCC21C (stereo partly drawn)", "result": "-1% (inactive)"}
{"compound": "O=C1CCC(c2ccccc2)=NN1c1nc2ccccc2s1", "result": "-3.68% (inactive)"}
{"compound": "CN(C)CCCN=C(N)N", "result": "4.78% (inactive)"}

Prompt: Determine from records and report activity change, negative = inhibition for Cc1nc(-c2ccccc2)c(Cc2ccccc2O)c(=O)[nH]1
Completion: 4.59% (inactive)

Prompt: Respond only with activity change, negative = inhibition recorded for CN(C)CCCNc1ncnc2nc[nH]c12
Completion: -10.5% (inactive)

Prompt: Given CCOC(=O)C(C)(C)[C@H](O)C(C)C , respond with its activity change, negative = inhibition.
Completion: 6.94% (inactive)

---

Test: AP1 Signaling Pathway (AID 357);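 further: ME-180 reporter cells stimulated with EGF at its EC50 level; on the % scale 0 is the no-effect control and ±100 the full control effect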
Conditions: ME-180 AP-1-bla reporter, EGF-induced, beta-lactamase ratio, 5 h; at 7.69 µM (top of the series) unless noted
Experimental: NCGC Assay Overview: Activator protein-1 (AP-1), a transcription factor, plays an important role in tumor genesis by regulating genes involved in cell proliferation, differentiation, apoptosis, and angiogenesis. AP-1 activity is induced by a complex network of signaling pathways that involves extracellular signals, such as growth factors. […] Library compounds were measured for their ability to modulate positively or negatively the action of EC50 EGF on reporter gene activity. […]
Records with an inconclusive call do not appear.
Parameter threshold = -10%. Response is true when activity change, negative = inhibition meets or exceeds it, else false.

Answered cases to consult:
{"structureSmiles": "C[C@@](O)(CNS(=O)(=O)c1ccccc1)c1ccccc1", "discreteLabel": "true"}
{"structureSmiles": "COc1ccc(C(=O)N2CCC3(CCCN(C(=O)Nc4cccc(F)c4)C3)CC2)cc1", "discreteLabel": "false"}
{"structureSmiles": "Cc1cc(O)c(-c2cc(O)c(C)cc2O)cc1O", "discreteLabel": "false"}
{"structureSmiles": "O=C(O)c1c(-c2c3ccc(=O)cc-3oc3cc(O)ccc23)cc2ccccc2c1-c1ccccc1", "discreteLabel": "true"}

We next turn to a different molecule, shown below.
Prompt: Can OCCSCc1cc(Cl)cc(Cl)c1O be said to have activity change, negative = inhibition at or above -10%?
Completion: true

---

assay: Cell Viability - LYMP1-003 - Assay at 40 hr (AID 964); conditions: LYMP1-003 lymphoblastoid viability; series mostly up to 92.2 µM; further: nearly all actives have a fitted effect of over 60% in size
Records with an inconclusive call do not appear. Calls of active or inactive are those of the source. The call rests on the fitted dose curve; in most records, active means well fitted cell-killing curve with a large enough effect; inconclusive means small, poorly fitted or top-dose-only effect; inactive means flat fitted curve, though single readings scatter.
Reply using exactly one outcome from active, inactive

{"compound": "O=C1c2ccccc2C(=O)C1(O)O", "discreteLabel": "inactive"}
{"compound": "CC(=O)OC(C(=O)c1ccccc1)c1ccccc1 (stereo unspecified)", "discreteLabel": "inactive"}

Prompt: Which outcome was assigned to C=C1CC[C@H](O)C/C1=C/C=C1\CCC[C@]2(C)[C@@H]([C@H](C)CCCC(C)C)CC[C@@H]12 in this test?
Completion: active

Prompt: What was the test verdict on C=CC(C)(O)CCCC(C)CCCC(C)CCCC(C)C (stereo unspecified) ?
Completion: inactive

Prompt: Just curious, what result did c1cc2c3c(c1)ccc1cccc(c13)C2 get here?
Completion: inactive

Prompt: Tell me the assay call for CCCCOC(=O)COc1ccc(Cl)cc1Cl please.
Completion: inactive

Prompt: Lab log entry: Cc1ccc(C(=O)O)cc1[N+](=O)[O-] — outcome as called in the assay?
Completion: inactive

---

assay: AP1 Signaling Pathway (AID 357); conditions: ME-180 (cervical carcinoma) AP-1-bla reporter, EGF-induced, beta-lactamase ratio, 5 h; at 7.69 µM (top of the series) unless noted;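 further: ME-180 reporter cells stimulated with EGF at its EC50 level; on the % scale 0 is the no-effect control and ±100 the full control effect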
Results filed as inconclusive are left out. Active and inactive are the calls of the source. Calls follow the shape of the dose curve; as a rule, active = well fitted curve in either direction with a large enough effect (not every such curve was filed as active); inconclusive = small, poorly fitted or top-dose-only effect, or another doubt; inactive = flat fitted curve, though single readings scatter.
resultType: activity change, negative = inhibition

Examples with their reported activity change, negative = inhibition follow.
{"compound": "N[C@H](C(=O)O)[C@H](N)C(=O)O", "activity change, negative = inhibition": "9.49% (inactive)"}
{"compound": "C=C(C)CN(CC#N)CC(=C)C", "activity change, negative = inhibition": "2.17% (inactive)"}
{"compound": "CN(C)CCCN=C(N)N", "activity change, negative = inhibition": "11.7% (inactive)"}
{"compound": "O=C(O)[C@@H]1[C@@H]2C[C@H]([C@@H](Br)[C@H]2N2C(=O)CCC2=O)[C@@H]1C(=O)O", "activity change, negative = inhibition": "-1.32% (inactive)"}
{"compound": "C[C@H](Oc1ccc(Oc2cnc3ccc(Cl)cc3n2)cc1)C(=O)O", "activity change, negative = inhibition": "-24.4% [at 38 µM] (inactive)"}

Prompt: Please list activity change, negative = inhibition recorded for the compound c1ccc(-c2cnc(-c3ccc(-c4ncc(-c5ccccc5)o4)cc3)o2)cc1
Completion: -0.667% (inactive)

Prompt: Fill in activity change, negative = inhibition for record O=S(=O)(O)c1ccc(-c2nnc(-c3ccccn3)nc2-c2ccc(S(=O)(=O)O)o2)o1
Completion: 4.23% (inactive)

Prompt: Entry O=C(O)[C@H](Cc1ccc(O)c([N+](=O)[O-])c1)N1C(=O)c2ccccc2C1=O needs its activity change, negative = inhibition filled in; supply it.
Completion: 0.441% (inactive)

Prompt: Indicate its recorded activity change, negative = inhibition; the compound in question is O=S(=O)(c1cccc(C(F)(F)F)c1)N1c2ccccc2-n2cccc2[C@H]1c1cccnc1
Completion: -23.2% (inactive)

Prompt: Provide one value: measured activity change, negative = inhibition of Clc1ccc(CSc2ncnc3c2ncn3[C@@H]2CCCCO2)cc1
Completion: -8.23% (inactive)

Prompt: Note down activity change, negative = inhibition recorded for C[C@H](N)C(=O)OC(C)(C)Cc1ccc(Cl)cc1
Completion: 9.46% [at 38 µM] (inactive)

Prompt: Output activity change, negative = inhibition of CCOC(=O)C(C)(C)[C@H](O)C(C)C
Completion: -4.38% (inactive)

Prompt: Report activity change, negative = inhibition, nothing else, for this compound: CC1=NN(C(=O)c2ccncc2)C(=O)[C@@H]1N=Nc1ccc2ccccc2c1
Completion: -15.6% (inactive)

Prompt: Tell us which activity change, negative = inhibition value is on record for Cc1ccc(C2=C(Cl)C(=O)C(c3ccc(C)cc3)=C(Cl)C2=O)cc1
Completion: 4.65% (inactive)

Prompt: // fetch activity change, negative = inhibition given entry c1ccc2c(c1)-c1ccccc1C2N1CC2CCC(CC2)C1
Completion: 22.5% (inactive)
